Test system: SK-MEL-2 melanoma
Assay: NCI-60 one-dose screen, 48 h (100 = growth as untreated, 0 = no growth, -100 = all killed)
Conditions: 10 µM unless noted
This is part of a sample that, as a whole, favours compounds with a hit. Of some 83,000 tested, about 20% had one in any assay.
Everything with growth lower than 90% is n; everything else, including exactly 90%, is y.

molecule=C=C(C)[C@@H]1CC[C@]2(C(=O)n3ccnc3)CC[C@]3(C)[C@H](CC[C@@H]4[C@@]5(C)CCCNC(C)(C)[C@@H]5CC[C@]43C)[C@@H]12 qualitative_label=n
molecule="CCC1S/C(=N\\N=C(/C)c2ccc[nH]2)N(c2ccccc2)C1=O (stereo not drawn)" qualitative_label=y
molecule=COc1ccc(/C=C/C(=O)Nc2ncnc3nc[nH]c23)cc1 qualitative_label=y
molecule=COc1ccccc1C(=O)/C=C/c1cc2cccc(OC)c2[nH]c1=O qualitative_label=n
molecule="CC1(c2ccccc2Cl)NC(=O)NC1=O (stereo not drawn)" qualitative_label=y

Answer whether growth of Nc1ccccc1NS(=O)(=O)c1ccc(Cl)cc1 is greater than or equal to 90%.
y

Answer whether growth of CO[C@@]12C=C[C@@]34CCC(=O)N3c3ccccc3[C@@H](O1)C4C2 is greater than or equal to 90%.
y

Answer whether growth of COc1cc2c(cc1OCCCOc1cc3c(cc1OC)C(=O)N1CC(F)(F)C[C@H]1C=N3)N=C[C@@H]1CC(F)(F)CN1C2=O is greater than or equal to 90%.
n

Answer whether growth of COc1cc(-c2nn(-c3ccc(Br)cc3)cc2CO)ccc1O is greater than or equal to 90%.
y

Answer whether growth of C=C(C)[C@@H]1CC[C@]2(C(=O)NCCCO)CC[C@]3(C)[C@H](CC[C@@H]4[C@@]5(C)CCCNC(C)(C)[C@@H]5CC[C@]43C)[C@@H]12 is greater than or equal to 90%.
y

Answer whether growth of CC(C)(C)c1nn(-c2ccccc2)c2c1COCN2Cc1ccc(Cl)cc1 is greater than or equal to 90%.
y

Answer whether growth of CN1CCN(S(=O)(=O)O[C@@H]2C(=O)N(c3cc4c5ccccc5ccc4c4ccccc34)[C@H]2c2ccc(F)cn2)CC1 is greater than or equal to 90%.
y

Answer whether growth of Nc1ccccc1NC(=O)c1ccc(CSc2nc(N3CCOCC3)c3cccn3n2)cc1 is greater than or equal to 90%.
n

Answer whether growth of COc1ccc2nc(-c3ccc(Cl)cc3)cc(-c3nnc(SC/C(=N/O)c4ccccc4)o3)c2c1 is greater than or equal to 90%.
n

Answer whether growth of Cc1ccc(CS/C(=C\c2ccc([N+](=O)[O-])cc2)C(=O)c2ccc(F)cc2)cc1 is greater than or equal to 90%.
n

Answer whether growth of O=C1C(Cl)=C(Nc2ccc3c(c2NC2=C(Cl)C(=O)c4ccccc4C2=O)C(=O)c2ccccc2C3=O)C(=O)c2ccccc21 is greater than or equal to 90%.
n

Answer whether growth of CC(C)(C)c1ccc(O)c(Cc2cc(C(C)(C)C)ccc2O)c1 is greater than or equal to 90%.
n

Answer whether growth of COC(=O)/C=C1\SC(=Nc2ccc(F)cc2)N(CCc2c[nH]c3ccccc23)C1=O is greater than or equal to 90%.
y

Answer whether growth of Cc1cc(C)c(NC(=O)c2sc3nc4c(cc3c2N)CCCCCC4)c(C)c1 is greater than or equal to 90%.
n

Answer whether growth of O=C(C[n+]1cccc2cc(Cl)ccc21)c1ccc2c(c1)CCCC2 is greater than or equal to 90%.
n

Answer whether growth of C#C[C@@]1(O)[C@@H](CO)O[C@@H](n2cc(F)c3c(N)ncnc32)[C@@H]1O is greater than or equal to 90%.
n

Answer whether growth of NC(=O)c1ccc(C2C3=C(CCCC3=O)OC3=C2C(=O)c2ccccc2C3=O)cc1 (stereo not drawn) is greater than or equal to 90%.
n

Answer whether growth of CN1CCN(CC#CCOC(=O)CNC(=O)[C@]23CCC(C)(C)C[C@H]2C2=CC[C@@H]4[C@@]5(C)CC[C@H](O)C(C)(C)[C@@H]5CC[C@@]4(C)[C@]2(C)CC3)CC1 is greater than or equal to 90%.
y
